Sourced from patent US12459921B2

Test system: MM.1S cells
method summary: Inhibitory effect on the proliferation of MM.1S, MTS cell viability test
Type: cell-based
condition info: Homo sapiens, MM1.S, 168 h, multiple myeloma MM.1S cells, 7 days incubation, read-out: Tumor cell inhibitory activity
assay endpoint: IC50

May I ask what IC50 has been recorded for Cc1ccc2c(c1)C1(CCN(CCCCCc3cccc4c3CN(C3CCC(=O)NC3=O)C4=O)CC1)OC2 (stereo not drawn) [Example 157] ?
< 100 nM

Would you kindly share the measured IC50 for O=C1CCC(N2Cc3c(OCCCC(=O)N4CCN(c5cccc(Cl)c5Cl)CC4)cccc3C2=O)C(=O)N1 (stereo not drawn) [Example 29] ?
< 100 nM

// returns reported IC50 for input N#CC1(c2cc(Cl)ccc2Cl)CCN(CCCCc2cccc3c2CN(C2CCC(=O)NC2=O)C3=O)CC1 (stereo not drawn) [Example 269]
100 to 1000 nM

Name the recorded IC50 for O=C1CCC(N2Cc3c(CCCCCN4CCC5(CC4)OCCc4ccccc45)cccc3C2=O)C(=O)N1 (stereo not drawn) [Example 137] .
100 to 1000 nM

Need IC50, item O=C1CCC(N2Cc3c(CCCCCOc4cc(C(F)(F)F)nc5ccccc45)cccc3C2=O)C(=O)N1 (stereo not drawn) [Example 13]
< 100 nM

Which IC50 is reported for this compound? COc1cccc(C2(C#N)CCN(CCCCc3cccc4c3CN(C3CCC(=O)NC3=O)C4=O)CC2)c1OC (stereo not drawn) [Example 259]
100 to 1000 nM

Need IC50, item COc1ccc(CNC(=O)[C@H](CCCc2cccc3c2CN(C2CCC(=O)NC2=O)C3=O)NC(C)=O)c(OC)c1 (stereo partly drawn) [Example 180]
100 to 1000 nM

Need IC50 of N#CC1(c2ccccc2Cl)CCN(C(=O)CCCCOc2cccc3c2CN(C2CCC(=O)NC2=O)C3=O)CC1 (stereo not drawn) [Example 85] , thanks.
< 100 nM

Requested field: IC50. Item: O=C1CCC(N2Cc3c(CCCCCN4CCC5(CC4)OC(=O)Nc4ccccc45)cccc3C2=O)C(=O)N1 (stereo not drawn) [Example 125]
100 to 1000 nM

Any idea what its IC50 is? The compound is O=C1CCC(N2Cc3c(CCCCCN4CCCc5cc(Cl)ccc54)cccc3C2=O)C(=O)N1 (stereo not drawn) [Example 115]
100 to 1000 nM

IC50 for CC(=O)N[C@@H](CCCc1cccc2c1CN(C1CCC(=O)NC1=O)C2=O)C(=O)NCc1ccccc1 (stereo partly drawn) [Example 166] ?
100 to 1000 nM

Look at this compound and give its reported IC50. O=C1CCC(N2Cc3c(CCCCCN4CCOc5cc(Br)ccc54)cccc3C2=O)C(=O)N1 (stereo not drawn) [Example 110]
< 100 nM

Please look up its IC50: O=C1CCC(N2Cc3c(CCCCN4CCN(c5cc(Cl)cc(Cl)c5)CC4)cccc3C2=O)C(=O)N1 (stereo not drawn) [Example 223]
< 100 nM

Need IC50, item O=C1CCC(N2Cc3c(OCCCC(=O)N4CCc5ccccc54)cccc3C2=O)C(=O)N1 (stereo not drawn) [Example 116]
< 100 nM

Which IC50 reading was recorded for the compound Nc1cccc2c1CN(C1CCC(=O)NC1=O)C2=O (stereo not drawn) [Lenalidomide, lenalidomide, reference compound] ?
100 to 1000 nM
